Reported pIC50 values are given for each entry in this list.
targetDesc: alpha-1 receptors
assaySummary: Inhibition of binding of [3H]Prazosine to rat alpha-1 receptors
cond: [3H]Prazosine 0.25 nM, membranes from rat brain
Scale for pIC50: -log10 of concentration given in mol/L; no unit attached.

For the compound O=C(CCCCN1CCN(c2cccc(Cl)c2Cl)CC1)N1CCc2ccccc21 , what pIC50 is on record?
6.80

Name the recorded pIC50 for Clc1cccc(N2CCN(CCCN3CCc4ccccc43)CC2)c1Cl .
7.17

I am curious: what pIC50 value has been reported for O=C(CCCN1CCN(c2ccccc2Cl)CC1)N1CCc2ccccc21 ?
7.01

* * *

targetDesc: human cloned dopamine D3 receptors (Homo sapiens)
Construct: expressed in transfected cells; host or cells: CHO cells
Sequence (P35462 whole entry): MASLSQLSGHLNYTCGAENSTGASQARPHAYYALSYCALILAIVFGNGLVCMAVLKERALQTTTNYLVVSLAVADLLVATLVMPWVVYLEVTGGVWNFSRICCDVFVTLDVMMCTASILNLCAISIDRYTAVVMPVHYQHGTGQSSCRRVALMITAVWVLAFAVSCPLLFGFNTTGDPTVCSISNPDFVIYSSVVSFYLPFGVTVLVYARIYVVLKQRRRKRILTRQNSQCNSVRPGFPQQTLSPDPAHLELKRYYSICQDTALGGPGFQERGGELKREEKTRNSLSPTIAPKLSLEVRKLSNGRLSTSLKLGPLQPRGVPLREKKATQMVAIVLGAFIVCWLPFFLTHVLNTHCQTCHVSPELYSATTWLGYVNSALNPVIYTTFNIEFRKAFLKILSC
assaySummary: Inhibition of the binding of [3H]Spiperone to human D3 receptors
cond: 100 nM; [3H]Spiperone 0.3 nM, membranes of CHO-cells; read-out: D3-bind. % inhibition of binding at 100 nM
Reported inhibition at 0.1 µM values for the following molecules.
Expressed in %, but write only the number.

Solved cases (3 shown):
O=C(CCCN1CCN(c2ccccc2Cl)CC1)N1CCc2ccccc2C1 : 88
Clc1ccc2c(CCCN3CCN(c4cccc(Cl)c4Cl)CC3)c[nH]c2c1 : 93
O=C(CCCN1CCN(c2cccc(Cl)c2Cl)CC1)N1CCc2cc(F)ccc21 : 65

Now for another entry.
What value of inhibition at 0.1 µM has been recorded for this entry: O=C(CCN1CCN(c2cccc(Cl)c2Cl)CC1)N1CCc2cc(F)ccc21
73
